Recorded values, source patent US20060223837A1.

Read-out record for UniProt Q8NER1: Ki
Sequence (Q8NER1 whole entry): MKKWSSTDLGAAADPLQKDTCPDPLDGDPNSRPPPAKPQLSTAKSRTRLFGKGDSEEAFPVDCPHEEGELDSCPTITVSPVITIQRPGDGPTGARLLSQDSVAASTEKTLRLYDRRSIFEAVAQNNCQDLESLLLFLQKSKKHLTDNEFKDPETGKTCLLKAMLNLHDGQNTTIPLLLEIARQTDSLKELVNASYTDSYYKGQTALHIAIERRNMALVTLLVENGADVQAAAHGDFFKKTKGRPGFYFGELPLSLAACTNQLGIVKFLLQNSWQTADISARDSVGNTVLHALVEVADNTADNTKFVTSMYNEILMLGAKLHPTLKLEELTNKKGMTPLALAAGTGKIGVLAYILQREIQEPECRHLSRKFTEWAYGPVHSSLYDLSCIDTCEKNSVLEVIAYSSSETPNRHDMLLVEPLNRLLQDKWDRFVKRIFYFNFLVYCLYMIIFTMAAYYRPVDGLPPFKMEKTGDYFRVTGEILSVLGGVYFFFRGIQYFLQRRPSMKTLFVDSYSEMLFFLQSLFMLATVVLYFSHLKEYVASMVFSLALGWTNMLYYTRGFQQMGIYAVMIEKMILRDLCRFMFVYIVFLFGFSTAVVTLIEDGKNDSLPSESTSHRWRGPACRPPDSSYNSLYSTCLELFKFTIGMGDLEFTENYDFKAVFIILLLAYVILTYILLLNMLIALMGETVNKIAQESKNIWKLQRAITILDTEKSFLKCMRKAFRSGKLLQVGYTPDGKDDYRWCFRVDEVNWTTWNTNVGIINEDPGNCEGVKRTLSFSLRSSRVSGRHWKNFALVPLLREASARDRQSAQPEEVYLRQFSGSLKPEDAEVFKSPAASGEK
measured.attribute: Ki (nM)

The following molecules have reported results that may help.
O=C(CCc1ccc(Cl)cc1)Nc1ccc(-n2ccnc2)c(C(F)(F)F)c1 = 2110
CC(C)(C)c1ccc(CCC(=O)Nc2ccc(-c3ccc(CO)cc3)c(F)c2)cc1 = 39
CC(C)(C)c1ccc(CCC(=O)Nc2ccc(-c3ccncc3)c(F)c2)cc1 = 55

a. Cc1cc(NC(=O)CCc2ccc(C(C)(C)C)cc2)ccc1-c1cccnc1
b. Cc1cc(NC(=O)CCc2ccc(C(C)(C)C)cc2)ccc1-c1ccncc1
c. O=C(CCc1ccc(C(F)(F)F)cc1)Nc1ccc(-c2ccc(O)cc2)c(C(F)(F)F)c1
Please produce an ascending ranking of these molecules based on Ki. Lab note: record answer as labels in requested order.
b, a, c
